- Tested on: SNB-19
- assay-details: NCI tumour cell line growth inhibition, 48 h
Active and inactive are the calls of the source. Rule as the data show it: active = GI50 up to about 1.1 µM and inactive = higher.
The reply should be one of these categories: TRUE = active, FALSE = inactive

Known results for compounds:
In [3]: df
Out[3]:
                                   compound  assigned_class
0            Cc1cc2oc(=O)[nH]c(=S)c2c(C)c1C           FALSE
1  CCOC(=O)C(NC(=O)Nc1ccccc1F)(OC)C(F)(F)F (centres undefined)           FALSE
2              COc1ccc(NN=C2C(=O)CCC2=O)cc1           FALSE
3    CC(C)OP(=O)(OC(C)C)C(C(F)(F)F)C(F)(F)F           FALSE

What did the test return for C/C(CN1C(=O)c2ccccc2C1=O)=N\NS(=O)(=O)c1ccc(Br)cc1 ?
FALSE

Param item: CC(=O)OC1CC2(O)C(CCC3(C)C(c4ccc(=O)oc4)CCC32O)C2(C)CCC(O)C=C12 (centres undefined)
TRUE

Try this compound too: COCC(=O)[C@]1(O)Cc2c(O)c3c(c(O)c2[C@@H](OC2CC(N)C(O)C(C)O2)C1)C(=O)c1c(OC)cccc1C3=O (some centres undefined)
TRUE

Same question for CC(C)NC(=O)OCC[S+]([O-])c1c(Cl)c(Cl)nn1C (centres undefined) please.
FALSE

What would you report for COc1cccc(NC(=O)CC(=O)N2N=C(C)C(/N=N/c3ccc(C(=O)O)cc3)C2=O)c1 (centres undefined) ?
FALSE

###

- Tested on: HOP-92
- assay-details: NCI tumour cell line growth inhibition, 48 h
Calls of active or inactive are those of the source. Rule as the data show it: active = GI50 up to about 1.1 µM and inactive = higher.
Tick one outcome: yes (active), no (inactive)

Some entries whose results are on file:
In [3]: df
Out[3]:
                                   compound  experimental_target  assigned_class
0  CC(C)C(Sc1nc(-c2ccccc2)c(-c2ccccc2)[nH]1)C(=O)N/N=C/c1ccc(Cl)cc1 (configuration not stated)               HOP-92              no
1                 Cc1nc(N)c(N2CCNCC2)c(O)n1               HOP-92              no
2  CC(C)NCC(O)c1cc(OCc2ccccc2)c(OCc2ccccc2)cc1NC(=O)CCC(=O)O (configuration not stated)               HOP-92              no

Query compound follows.
Test call for this compound, please: CC(=O)NC(Cc1ccccc1)NC(=O)O (configuration not stated)
no

###

- System: NCI-H226
- assay-details: NCI tumour cell line growth inhibition, 48 h
Calls of active or inactive are those of the source. Cut-off read from the data, not from the text of the source: active = GI50 up to about 1.1 µM and inactive = higher.
Entries and their measured GI50 follow.

                                   compound  experimental_target             measured
0  CCOC(=O)CN1C(=O)c2c(NC(=O)C(=O)O)cccc2S1(=O)=O             NCI-H226  > 100 µM (inactive)

For the compound shown here, CCCCCCCCCC[C@@H](O)[C@@H]1CC[C@@H]([C@@H]2CC[C@@H]([C@@H](O)CCCCCCCCCCC(O)CC3=CC(C)OC3=O)O2)O1 (some centres undefined) , give the reported GI50.
0.173 µM (active)

###

- Test system: OVCAR-8
- assay-details: NCI tumour cell line growth inhibition, 48 h
Active and inactive are the calls of the source. Rule as the data show it: active = GI50 up to about 1.1 µM and inactive = higher.
reported-endpoint: GI50

Known results for compounds:
compound	measured
CS(=O)(=O)c1ccc(/C=N/NC(N)=S)cc1	> 100 µM (inactive)
Cc1cc2oc(=O)[nH]c(=S)c2c(C)c1C	> 100 µM (inactive)

Find the measured GI50: item CCCCCCCCCCCC(=O)N(CCCCCCCCC)CC(O)C(O)C(OC1OC(CO)C(O)C(O)C1O)C(O)CO (stereo not given) , target or system OVCAR-8.
20.6 µM (inactive)

Query O=C(NC(Cc1ccccc1)C(=O)CCl)OCc1ccccc1 (stereo not given) next
4.38 µM (inactive)

###

- Test system: RPMI-8226
- assay-details: NCI tumour cell line growth inhibition, 48 h
The source made the active and inactive calls. Cut-off read from the data, not from the text of the source: active = GI50 up to about 1.1 µM and inactive = higher.
In this exercise, the only acceptable responses are class 1 = active, class 0 = inactive

What was the test verdict on COc1cc(O)c2c(=O)c(O)c(-c3ccc(O)c(OC)c3)oc2c1 [RHAMNAZIN] ?
class 0

###

The following molecules are listed with their measured GI50 values.
- Test system: OVCAR-3
- assay-details: NCI tumour cell line growth inhibition, 48 h
Active and inactive are the calls of the source. No stated cut-off is given here; in the data, active = GI50 up to about 1.1 µM and inactive = higher. *1 amine or outer side, *2 acyl side, *3 side chain or, on linkers, in order; H or OH if unused. Where a SMILES comes first, the peptide text is derived from it. The star is where a group is joined. γGlu = O=C(O)[CH](CCC(=O)[*:2])N[*:1]; NHOH = ON*

Which GI50 value belongs to COc1cc(O)c2c(=O)c(O)c(-c3ccc(O)c(OC)c3)oc2c1 ?
2.52 µM (inactive)

Would you mind doing O=C(O)CC(C(=O)O)C1c2ccccc2-c2ccccc21 (stereo not given) as well?
35.5 µM (inactive)

Subsequent entry: CN(CO)c1nc(N(C)CO)nc(N(C)CO)n1
27.7 µM (inactive)

Ok, now O=P1(O)C=CC2(CCCC2)O1
> 100 µM (inactive)

Now this one: COc1ccc(C2C3CCc4ccccc4C3=NN2S(=O)(=O)c2ccc(Cl)cc2)cc1 (stereo not given)
16.6 µM (inactive)

Quick one: CN1CCN(CC(=O)N2c3ccccc3Sc3cc4ccccc4cc32)CC1
12.9 µM (inactive)

And for CSc1ccc(Nc2cc(=O)[nH]c(=O)[nH]2)cc1 ?
> 100 µM (inactive)

Moving on to CC[C@@H](/C=C\CCC1(C[C@@H](N)CCC=C(C)C)OCCO1)O[Si](C(C)C)(C(C)C)C(C)C
18.7 µM (inactive)

Next molecule: OC(CN(CCCl)CCCl)C(O)C(O)C(O)CN(CCCl)CCCl (stereo not given)
> 100 µM (inactive)

// next record NC(CCC(=O)NC(CCC(=O)NO)C(=O)NCC(=O)O)C(=O)O (stereo not given) (γGlu-Glu(NHOH)-Gly-OH; configuration not given here)
> 100 µM (inactive)

###

- System: SF-268
- assay-details: NCI tumour cell line growth inhibition, 48 h
Calls of active or inactive are those of the source. Rule as the data show it: active = GI50 up to about 1.1 µM and inactive = higher.
# GI50 annotations

Look up GI50 for this molecule: CC1=C(Cl)C=CP(=O)(OC(C)C)C1 (stereo not given)
> 100 µM (inactive)

###

- System: KM12
- assay-details: NCI tumour cell line growth inhibition, 48 h
Calls of active or inactive are those of the source. Cut-off read from the data, not from the text of the source: active = GI50 up to about 1.1 µM and inactive = higher.
Property: GI50; scope: individual molecules

Known results for molecules:
>>> print(df.to_string())
                                   molecule             measured
0              On1c(-c2ccccc2)nc2ccccc2c1=S   3.18 µM (inactive)
1  N#CCC(=O)N/N=C1/C(=O)N(c2cc(Cl)ccc2Cl)C(=O)C(=O)C1c1nc2ccccc2s1 (stereo unspecified)  > 100 µM (inactive)
2  CC(C)(C)c1cc(C(CO)OCCOCCO)cc(C(C)(C)C)c1O (stereo unspecified)  > 100 µM (inactive)

Which GI50 reading was recorded for the molecule O=C(Nc1nn(C(=O)c2ccc(Cl)cc2)c(=O)s1)c1ccc(Cl)cc1 ?
> 100 µM (inactive)

Then this molecule: CCN(CC)c1c(-c2c(N(CC)CC)c(OC(C)=O)c3sccn3c2=O)c(=O)n2ccsc2c1OC(C)=O
> 100 µM (inactive)

# iterate: CN(CC(=O)O)c1ccc(/C=C/c2ccnc3ccccc23)cc1
13.2 µM (inactive)

###

Form field: GI50 (one value per entry).
- Test system: M14
- assay-details: NCI tumour cell line growth inhibition, 48 h
Active and inactive are the calls of the source. Cut-off read from the data, not from the text of the source: active = GI50 up to about 1.1 µM and inactive = higher. *1 amine or outer side, *2 acyl side, *3 side chain or, on linkers, in order; H or OH if unused. Where a SMILES comes first, the peptide text is derived from it. The star is where a group is joined. γGlu = O=C(O)[CH](CCC(=O)[*:2])N[*:1]; NHOH = ON*

In [3]: df
Out[3]:
                                   compound             measured
0  COc1cccc(NC(=O)CC(=O)N2N=C(C)C(/N=N/c3ccc(C(=O)O)cc3)C2=O)c1 (centres undefined)  > 100 µM (inactive)
1  O=C(/C=C1\N=C(c2ccccc2)N(c2nc3c(Cl)cc(Cl)cc3s2)C1=O)/C=C/c1ccccc1  > 100 µM (inactive)
2  Nc1ncnc2c1ncn2[C@@H]1O[C@H](C(=O)O)[C@@H](O)[C@H]1O [5'-CARBOXY ADENOSINE]  > 100 µM (inactive)
3  CN(CC(=O)O)c1ccc(/C=C/c2ccnc3ccccc23)cc1   22.2 µM (inactive)
4  O=C1CCCCC1S(=O)(=O)c1ccccc1 (centres undefined)  > 100 µM (inactive)
5             COc1cc(C(=O)O)ccc1OS(=O)(=O)O  > 100 µM (inactive)
6  C[n+]1c(/C=C/c2ccc(/C=N/NC(=O)c3ccc(C(=O)N/N=C/c4ccc(/C=C/c5cn6ccccc6[n+]5C)cc4)cc3)cc2)cn2ccccc21  > 100 µM (inactive)
7  NC(CCC(=O)NC(CCC(=O)NO)C(=O)NCC(=O)O)C(=O)O (centres undefined) (γGlu-Glu(NHOH)-Gly-OH; configuration not given here)  > 100 µM (inactive)
8                    COc1ccc2c(C)cc(C)nc2n1  > 100 µM (inactive)
9             S=C(c1c[nH]c2ccccc12)N1CCOCC1  > 100 µM (inactive)

Param readout = GI50; param system = M14; param query = C[C@@H]1OC(=O)C[C@H]2CC(=O)N(CCC3CN(S(=O)(=O)C(F)(F)F)c4ccccc43)C[C@@H]21 (some centres undefined) ; response: value
> 100 µM (inactive)

Moving on to the next compound: CC1=C(C(=O)NNC(=O)C[N+](C)(C)C)CC(C(=O)NNC(=O)C[N+](C)(C)C)=C(C)N1
> 100 µM (inactive)
